Target: human Phosphatase and Tensin Homolog (PTEN), PTEN (gene 5728) (UniProt P60484)
Sequence (P60484 whole entry, looked up): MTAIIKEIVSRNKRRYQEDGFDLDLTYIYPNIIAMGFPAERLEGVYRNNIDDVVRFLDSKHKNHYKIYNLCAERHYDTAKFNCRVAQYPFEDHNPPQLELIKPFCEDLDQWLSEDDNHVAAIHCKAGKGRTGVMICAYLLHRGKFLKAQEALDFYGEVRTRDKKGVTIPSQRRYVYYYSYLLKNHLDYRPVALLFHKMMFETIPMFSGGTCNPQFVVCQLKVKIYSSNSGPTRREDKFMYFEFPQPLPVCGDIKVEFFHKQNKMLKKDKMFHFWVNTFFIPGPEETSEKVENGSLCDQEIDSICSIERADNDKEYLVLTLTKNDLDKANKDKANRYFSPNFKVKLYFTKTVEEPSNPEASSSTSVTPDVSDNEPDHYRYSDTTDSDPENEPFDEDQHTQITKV
Assay: NVS_ENZ_hPTEN: NovaScreen (NVS) Enzymatic Assay for human Phosphatase and Tensin Homolog (PTEN) (AID 2283203)
Inconclusive results are not listed. Activity calls are given as the source filed them. How the source made its calls: active means hit-call score of the fitted dose curve at least 0.9, where 1 is the maximum; inconclusive means response in the unintended direction; inactive means score below 0.9.
Measurement Label: AC50

{"columns": ["Compound", "Reported Result"],
 "data": [
  ["C=C(C)CCO", "inactive"],
  ["CC[C@H](C)C(=O)O[C@H]1C[C@H](O)C=C2C=C[C@H](C)[C@H](CC[C@@H](O)C[C@@H](O)CC(=O)O)[C@H]21", "inactive"],
  ["Nc1ccc(S(=O)(=O)Nc2nccs2)cc1", "inactive"],
  ["CC/C=C\\C/C=C\\C/C=C\\CCCCCCCC(=O)OC", "9.64 µM (active)"],
  ["CO[Si](OC)(c1ccccc1)c1ccccc1", "inactive"],
  ["CCOC(=O)[C@H](C)O", "inactive"],
  ["O=S(=O)(O)c1ccc(N=Nc2c(O)ccc3cc(S(=O)(=O)O)ccc23)cc1", "inactive"],
  ["NCCO", "inactive"],
  ["Cc1cncc(C)c1", "inactive"],
  ["CCCCCC1=CCCC1=O", "16.3 µM (active)"],
  ["CC(=O)OCC=C(C)CCC=C(C)CCC=C(C)C", "inactive"],
  ["CCc1c(C(=O)NN2CCCCC2)nn(-c2ccc(Cl)cc2Cl)c1-c1ccc(Br)cc1", "inactive"],
  ["CCC(C)C(=O)OC (centres undefined)", "inactive"],
  ["O=C(O)c1[nH]n(-c2ccc(S(=O)(=O)O)cc2)c(=O)c1N=Nc1ccc(S(=O)(=O)O)cc1", "inactive"],
  ["CC(C)CCOCCC(C)C", "inactive"],
  ["COCCO", "inactive"],
  ["CCCCCCCCCC", "inactive"],
  ["N#CSCSc1nc2ccccc2s1", "inactive"],
  ["CN(C)C(=S)SC(=S)N(C)C", "18.9 µM (active)"],
  ["CSC(=O)c1cccc2nnsc12", "inactive"],
  ["SCc1ccco1", "25 µM (active)"],
  ["CCc1cccc(CC)c1", "inactive"],
  ["CC(C)c1cccc(C(C)C)c1N1C(=O)c2ccc(O)cc2C1=O", "inactive"],
  ["CN(CCOc1ccc(CC2SC(=O)NC2=O)cc1)c1ccccn1 (centres undefined)", "inactive"],
  ["CCN(CC)CC", "3.58 µM (active)"],
  ["ClC1=C(Cl)[C@]2(Cl)[C@@H]3[C@@H](Cl)[C@H](Cl)C[C@@H]3[C@@]1(Cl)C2(Cl)Cl", "inactive"],
  ["C1CCC(SSC2CCCCC2)CC1", "inactive"],
  ["CCCCCCCCCCCCCCCC", "inactive"],
  ["CC1(C)[C@H](C(=O)OCc2cccc(Oc3ccccc3)c2)[C@@H]1C=C(Cl)Cl", "15.7 µM (active)"],
  ["CCN(CCC#N)c1ccc(N=Nc2ccc([N+](=O)[O-])cc2)cc1", "inactive"],
  ["OCCCCl", "inactive"],
  ["CC[C@H](C)C(=O)O[C@H]1C[C@@H](C)C=C2C=C[C@H](C)[C@H](CC[C@@H]3C[C@@H](O)CC(=O)O3)[C@H]21", "inactive"],
  ["Oc1ccc2c(c1)CCC2", "1.62 µM (active)"],
  ["C#C[C@]1(O)CC[C@H]2[C@@H]3CCC4=Cc5oncc5C[C@]4(C)[C@H]3CC[C@@]21C", "25 µM (active)"],
  ["CCc1cccc(C)c1N(C(=O)CS(=O)(=O)O)C(C)COC (centres undefined)", "inactive"],
  ["C=C1CC[C@H]2O[C@]2(C)CC[C@@H]2[C@@H]1CC2(C)C", "inactive"],
  ["CC(c1cc(C(C)(C)C)cc(C(C)(C)C)c1O)c1cc(C(C)(C)C)cc(C(C)(C)C)c1O", "5.29 µM (active)"],
  ["CCCCCCCCCCc1ccccc1", "inactive"],
  ["Cc1ncc([C@@H](CCCCCCc2ccc3c(n2)NCCC3)CC(=O)O)cn1", "inactive"]
]}
